Entries below carry reported Ki on Kappa-type opioid receptor (Cavia porcellus).
Your answer is read as nM, so omit the unit and give the number.

compound.string	Ki (nM)
CC[C@H](C)[C@H](NC(=O)[C@H](CCCN=C(N)N)NC(=O)[C@H](CCCN=C(N)N)NC(=O)[C@@H]1CCNC(=O)C[C@@H](NC(=O)[C@@H](N)Cc2ccc(O)cc2)C(=O)NCC(=O)N[C@@H](Cc2ccccc2)C(=O)N1)C(=O)N[C@@H](CCCN=C(N)N)C(=O)N1CCC[C@H]1C(=O)N[C@@H](CCCCN)C(=O)N[C@@H](CC(C)C)C(=O)N[C@@H](CCCCN)C(N)=O	0.13
CC[C@H](C)[C@H](NC(=O)[C@H](CCCN=C(N)N)NC(=O)[C@H](CCCN=C(N)N)NC(=O)[C@@H]1CCCNC(=O)C[C@@H](NC(=O)[C@@H](N)Cc2ccc(O)cc2)C(=O)NCC(=O)N[C@@H](Cc2ccccc2)C(=O)N1)C(=O)N[C@@H](CCCN=C(N)N)C(=O)N1CCC[C@H]1C(=O)N[C@@H](CCCCN)C(=O)N[C@@H](CC(C)C)C(=O)N[C@@H](CCCCN)C(N)=O	0.68

Q: Fill blank: measured Ki of the compound "CC[C@H](C)[C@H](NC(=O)[C@H](CCCN=C(N)N)NC(=O)[C@H](CCCN=C(N)N)NC(=O)[C@@H]1CNC(=O)C[C@@H](NC(=O)[C@@H](N)Cc2ccc(O)cc2)C(=O)NCC(=O)N[C@@H](Cc2ccccc2)C(=O)N1)C(=O)N[C@@H](CCCN=C(N)N)C(=O)N1CCC[C@H]1C(=O)N[C@@H](CCCCN)C(=O)N[C@@H](CC(C)C)C(=O)N[C@@H](CCCCN)C(N)=O" is ____.
A: 0.22
